Below is a list of entries, each paired with its recorded melting point value.

Example cases with answers are listed next.
CCCCCCCCOc1ccc(N)cc1 :: 35 to 39 °C
COC(C(=O)O)c1ccccc1 (racemic) :: 68 to 72 °C

In the following, a different molecule is considered.
Req: What does the record list as melting point for `CN1C(=O)Cc2cc(N)ccc21` ?
Resp: 109 to 112 °C

----------
Let's look at some compounds and their measured melting point.

See these solved cases before continuing.
C(=C\c1nn2c(COc3ccccc3)nnc2s1)/c1ccccc1 :: 141 to 143 °C
CC(=O)OC1CC[C@@]2(C)C(=CC[C@@H]3[C@@H]2CC[C@@]2(C)[C@H]3CC[C@]2(O)C#Cc2ccccc2)C1 (some centres undefined) :: 147 to 148 °C

Now take the following compound into account.
Req: Can you share its melting point? I mean this compound: `COc1ccccc1N1CCN(CC(N)=S)CC1`
Resp: 130 to 132 °C

----------
PROPERTY NAME: melting point

Some molecules with known melting point results, for comparison:
O=C(O)c1ccc2c(c1)OCCOCCOCCOCCOCCO2 :: 121 to 126 °C
COC(=O)c1ccccc1S(=O)(=O)Cl :: 62 to 63 °C
CS(=O)(=O)c1ccc(C=O)cc1 :: 155 to 161 °C
COc1ccc(-c2nc(CCl)no2)cc1 :: 60 to 62 °C
Cc1oc(-c2ccccc2)nc1CN :: 42 to 46 °C
O=C1C(=Cc2ccc(-c3ccc(Cl)cc3)o2)CCC1=Cc1ccc(-c2ccc(Cl)cc2)o1 :: 264 to 266 °C
O=C(O)c1cc(F)c(Cl)c([N+](=O)[O-])c1Cl :: 193 to 197 °C
NC(=S)c1cccc(-n2cccc2)c1 :: 110 to 112 °C

Req: For `COC(=O)c1cccc([N+](=O)[O-])c1NC(C)=O` , what is its reported melting point?
Resp: 120 to 121 °C

Req: Consider the molecule shown here: `NC(=O)[C@@H]1CCCN1` What is its recorded melting point?
Resp: 97 to 102 °C

----------
melting point values, listed per item

Example entries and their recorded answers appear below.
O=C(c1ccc(Cl)c([N+](=O)[O-])c1)C1CC1 :: 78 to 80 °C
N#Cc1cccc(-c2cccs2)c1 :: 58 to 60 °C

Req: Any idea what melting point was measured for `COc1cc(-c2n[nH]c(=S)n2/N=C/c2cc(Br)ccc2O)cc(OC)c1OC` ?
Resp: 230 to 231 °C

Req: What measured melting point goes with `Cc1ccc(C=C2N=C(c3ccccc3)OC2=O)o1` ?
Resp: 159 to 160 °C

Req: Data request, read-out melting point, for CCCSP(=O)(OCC)Oc1ccc(Br)cc1Cl (stereo not given)
Resp: < 25 °C

----------
melting point values, listed per item

As a guide, the following entries are already answered.
CCOC(=O)C(C#N)=C1Oc2ccccc2N1C :: 135 to 137 °C
O=c1[nH]c2ccccc2n1C1CCNCC1 :: 183 to 185 °C
O=C(NC(=C(NC(=O)c1ccccc1)c1ccccc1)c1ccccc1)c1ccccc1 :: 100 °C
O=[N+]([O-])c1cccnc1Oc1ccc(F)cc1F :: 63 to 65 °C

Req: What melting point value was documented for this molecule, `O=C(O)C1CN(C(c2ccccc2)c2ccccc2)C1` ?
Resp: 178 to 180 °C

Req: So what does the record say about melting point for `NC(=S)Nc1ccc(F)cc1` ?
Resp: 162 to 167 °C

Req: What does the data say about its melting point? Entry: `O=C(O)c1cc(Br)cnc1Br`
Resp: 184 to 185 °C

Req: Which melting point reading was recorded for the molecule `O=C1OC(c2ccccc2)=NC1=Cc1cc([N+](=O)[O-])ccc1O` ?
Resp: 231 to 232 °C

Req: For `Cc1nc(-c2cccc(C=O)c2)cs1` , what is its reported melting point?
Resp: 76 to 80 °C

----------
Known melting point of a selection of compounds

Req: Please look up its melting point: `CSc1sc(C(N)=S)c2c1C(=O)CCC2`
Resp: 232 to 233 °C

----------
The following compounds are listed with their measured melting point values.

O=C1C=CC(=O)c2cc3ccccc3cc21 :: 223 to 226 °C

Req: I have this compound here, C=CCN1CCCC1CNC(=O)c1cc(S(=O)(=O)NC)c(N)cc1OC (stereo unspecified) , and I need its recorded melting point.
Resp: 169 °C

Req: Dear colleague, I am looking for the recorded melting point of the following compound: COc1ccc2cc(C(C)O)ccc2c1 (racemic)
Resp: 111 to 114 °C

Req: Data request, read-out melting point, for `Cc1nn(-c2ccccc2)nc1C(=O)Cl`
Resp: 104 to 105 °C

----------
Each item that follows carries a reported melting point.

// below: answered compounds
O=[N+]([O-])c1ccc(-c2nnc(S)s2)o1 :: 175 to 177 °C
CC(C)(C)OC(=O)NCC(N)=S :: 129 to 131 °C
Nc1ccc2oc3c(c2c1)CCCC3 :: 73 to 75 °C

Next up:
Req: If you can, please state the reported melting point value of `ON=C1CCCSC1` .
Resp: 103 to 104 °C

----------
# melting point per entry

Answered cases to consult:
O=C1CCC(C(=O)O)=NN1 :: 199 to 200 °C
O=C(O)CN(CCOCCOCCN(CC(=O)O)CC(=O)O)CC(=O)O :: 240 to 245 °C
OC1C(C2COC3(CCCCC3)O2)OC2OC3(CCCCC3)OC21 (stereo unspecified) :: 129 to 135 °C
NC(=S)N1CCOCC1 :: 153 to 156 °C
O=c1cc[nH]c2c1cnn2-c1ccccc1 :: 166 to 168 °C
CC12CCC3C(CCC4CC(CC(=O)O)=CCC43C)C1CCC2=O (stereo unspecified) :: 175 to 178 °C
CCOC(=O)c1c[nH]nc1C(F)(F)F :: 145 to 148 °C
Cc1cccc(P(c2cccc(C)c2)c2cccc(C)c2)c1 :: 100 to 103 °C

Req: Fill in: melting point of `CSC(S)=Nc1ccccc1C` is ___
Resp: 151 to 153 °C

Req: Requested read-out: melting point. Entry: `O=C1C=CC(=O)C(Cl)=C1`
Resp: 52 to 57 °C

Req: What measured melting point goes with `N#CCc1cccc(Cl)c1Cl` ?
Resp: 66 to 69 °C

Req: I am curious: what melting point value has been reported for `COC(=O)c1ccc2[nH]cnc2c1` ?
Resp: 139 to 143 °C

Req: What does the data say about its melting point? Entry: `CCCc1c(NCC)ccc(C(C)=O)c1O`
Resp: 45 to 48 °C

----------
Here, each record is paired with measured melting point data.

Example entries begin here.
Cn1nc(-c2cccs2)cc1C(=O)Cl :: 113 to 114 °C
CC(C)C(C(=O)O)C(=O)O :: 90 to 93 °C
Cn1c(S)nnc1Cc1ccsc1 :: 130 to 133 °C
OCc1cccc(-c2ccsc2)c1 :: 88 to 90 °C

# input for lookup
Req: Query: melting point; subject: `CC(=O)OC(=CC=C(OC(C)=O)c1ccccc1)c1ccccc1`
Resp: 174 to 176 °C

----------
Below is a list of entries, each paired with its recorded melting point value.

Worked examples follow.
N#Cc1ncccc1N1CCCCC1 :: 67 to 69 °C
COCc1cc(=O)oc2cc(O)c(Cl)cc12 :: 196 to 198 °C
CCCCOc1ccc(N)c([N+](=O)[O-])c1 :: 64 to 66 °C
CC(C)Cc1ccc(C(=O)C=Cc2cccc([N+](=O)[O-])c2)cc1 :: 104 to 107 °C
N#CC1=C(C#N)C(=O)C(NCCc2ccccc2)=C(Cl)C1=O :: 265 to 267 °C

Req: Recorded melting point of CC(CCC(=O)O)C1CCC2C3CCC4CCCCC4(C)C3CCC12C (stereo not given) , please.
Resp: 164 °C

Req: What melting point value was documented for this compound, `O=C(NCCCCCCCCNC(=O)C(Cl)Cl)C(Cl)Cl` ?
Resp: 118 to 120 °C

Req: Given `CC1(C)C(=O)Nc2ccccc21` , state its recorded melting point.
Resp: 154 °C

Req: What value of melting point has been reported for the following compound? `NC(=S)Nc1ccccc1F`
Resp: 143 to 145 °C

Req: Which melting point is reported for this compound? `O=C1CCC(c2ccc(N=Cc3ccccc3[N+](=O)[O-])cc2)=NN1`
Resp: 234 to 236 °C

Req: What value of melting point has been reported for the following compound? `COC(=O)C1=C(C)NC(C)=C(C(=O)OC)C1c1ccc(OC)cc1`
Resp: 173 to 177 °C

Req: Field request: melting point | item: `CC(=C(C)c1ccccc1)c1ccccc1`
Resp: 64 to 66 °C

----------
This section presents compounds with their documented melting point values.
Respond with the bare value in °C.

Req: Query (compound): `O=C(O)CCCCC=C(c1ccccc1)c1cccnc1` ; field requested: melting point
Resp: 114

Req: So what's the measured melting point for this one? `NC(=O)c1sccc1Br`
Resp: 78

Req: Quick one: melting point of `CCC1(C)CC(=O)NC(=O)C1` ?
Resp: 126

Req: Which melting point is listed for `CCCCCCCCCCCCCCCCCC(=O)OC(=O)CCCCCCCCCCCCCCCCC` ?
Resp: 72
